// provenance: patent EP4703358A1

Procedure summary: in vitro
Condition description: rat, microsomes
Parameter: microsomal CLint (µL/min/mg)
Give the quantity in µL/min/mg, number only.

[Q] Requested field: microsomal CLint. Item: O=C1CCC(N2Cc3cc(CNC(=O)C(F)(F)c4ccc(Cl)cc4)ccc3C2=O)C(=O)N1 (stereo not shown) [CC-90009]
[A] 17.9

----------
Procedure summary: in vivo
Condition description: male, SD, rat, po, 10 mg/kg
Parameter: Cmax (ng/mL)
Give the quantity in ng/mL, number only.

[Q] Requested field: Cmax. Item: O=C1CCC(N2Cc3cc(CNC(=O)C(F)(F)c4ccc(Cl)cc4)ccc3C2=O)C(=O)N1 (stereo not shown)
[A] 616

----------
Procedure summary: in vivo
Condition description: male, SD, rat, iv, 2 mg/kg
Parameter: half-life (h)
Give the quantity in h, number only.

[Q] Requested field: half-life. Item: O=C1CCC(N2Cc3cc(CNC(=O)C(F)(F)c4ccc(Cl)cc4)ccc3C2=O)C(=O)N1 (stereo not shown)
[A] 1.44

----------
Procedure summary: In vivo pharmacokinetic study in rats
Condition description: male, SD, rat, plasma, po, 10 mg/kg
Parameter: Tmax (min)
Give the quantity in min, number only.

Example entries and their recorded answers appear below.
O=C1CCC(N2Cc3c(ccc(CNC(=O)C4=Cc5cc(OC(F)(F)F)ccc5OC4)c3F)C2=O)C(=O)N1 (stereo not drawn) [Compound A-42]	39.6
O=C1CCC(N2Cc3cc(CNC(=O)C4=Cc5ccccc5OC4)ccc3C2=O)C(=O)N1 (stereo not drawn) [Compound A-1]	45

Let us move to another entry and its Tmax.
[Q] Requested field: Tmax. Item: O=C1CCC(N2Cc3cc(CNC(=O)C4=Cc5cc(OC(F)(F)F)ccc5OC4)ccc3C2=O)C(=O)N1 (stereo not drawn) [Compound A-10]
[A] 19.8

----------
Procedure summary: in vivo
Condition description: male, SD, rat, iv, 2 mg/kg
Parameter: C0 (ng/mL)
Give the quantity in ng/mL, number only.

[Q] Requested field: C0. Item: O=C1CCC(N2Cc3cc(CNC(=O)C(F)(F)c4ccc(Cl)cc4)ccc3C2=O)C(=O)N1 (stereo not shown)
[A] 1870

----------
Procedure summary: In vivo pharmacokinetic study in rats
Condition description: male, SD, rat, plasma, po, 10 mg/kg
Quick reference for AUC(0-t) among some compounds
Give the quantity in ng·h/mL, number only.

Example entries and their recorded answers appear below.
O=C1CCC(N2Cc3c(ccc(CNC(=O)C4=Cc5cc(OC(F)(F)F)ccc5OC4)c3F)C2=O)C(=O)N1 (stereo not drawn)	8380
O=C1CCC(N2Cc3cc(CNC(=O)C4=Cc5cc(OC(F)(F)F)ccc5OC4)ccc3C2=O)C(=O)N1 (stereo not drawn)	4950

Let us move to another entry and its AUC(0-t).
[Q] Requested field: AUC(0-t). Item: O=C1CCC(N2Cc3cc(CNC(=O)C4=Cc5ccccc5OC4)ccc3C2=O)C(=O)N1 (stereo not drawn)
[A] 1810

----------
Quick reference for clearance among some molecules
Procedure summary: In vivo pharmacokinetic study in rats
Condition description: male, SD, rat, plasma, iv, 2 mg/kg
Give the quantity in mL/min/kg, number only.

O=C1CCC(N2Cc3c(ccc(CNC(=O)C4=Cc5cc(OC(F)(F)F)ccc5OC4)c3F)C2=O)C(=O)N1 (stereo not drawn)	1.9

[Q] Requested field: clearance. Item: O=C1CCC(N2Cc3cc(CNC(=O)C4=Cc5ccccc5OC4)ccc3C2=O)C(=O)N1 (stereo not drawn)
[A] 17.6

[Q] Requested field: clearance. Item: O=C1CCC(N2Cc3cc(CNC(=O)C4=Cc5cc(OC(F)(F)F)ccc5OC4)ccc3C2=O)C(=O)N1 (stereo not drawn)
[A] 8.1

----------
Procedure summary: in vivo
Condition description: male, SD, rat, iv, 2 mg/kg
Parameter: clearance (mL/min/kg)
Give the quantity in mL/min/kg, number only.

[Q] Requested field: clearance. Item: O=C1CCC(N2Cc3cc(CNC(=O)C(F)(F)c4ccc(Cl)cc4)ccc3C2=O)C(=O)N1 (stereo not shown)
[A] 28.8

----------
Procedure summary: In vivo pharmacokinetic study in rats
Condition description: male, SD, rat, plasma, iv, 2 mg/kg
Parameter: AUC(0-t) (ng·h/mL)
Give the quantity in ng·h/mL, number only.

O=C1CCC(N2Cc3cc(CNC(=O)C4=Cc5cc(OC(F)(F)F)ccc5OC4)ccc3C2=O)C(=O)N1 (stereo not drawn) [Compound A-10]	4310

[Q] Requested field: AUC(0-t). Item: O=C1CCC(N2Cc3c(ccc(CNC(=O)C4=Cc5cc(OC(F)(F)F)ccc5OC4)c3F)C2=O)C(=O)N1 (stereo not drawn) [Compound A-42]
[A] 17200

[Q] Requested field: AUC(0-t). Item: O=C1CCC(N2Cc3cc(CNC(=O)C4=Cc5ccccc5OC4)ccc3C2=O)C(=O)N1 (stereo not drawn) [Compound A-1]
[A] 1900

----------
System: MOLM-13
Procedure summary: Antiproliferative activity against tumor cells (CCK8), MOLM-13
Assay type: cell-based
Condition description: Homo sapiens, MOLM-13 cells, 72 hours
pIC50: −log10 of the molar value.
Parameter: pIC50

Example entries and their recorded answers appear below.
O=C1CCC(N2Cc3cc(CNC(=O)C4CCc5ccccc5C4)ccc3C2=O)C(=O)N1 [Compound D-1]	≤ 6.00
O=C1CCC(N2Cc3cc(CNC(=O)C4COc5ccccc5C4)ccc3C2=O)C(=O)N1 (centres unmarked) [Compound B-1]	8.00 to 9.00

[Q] Please state recorded pIC50 (tested on MOLM-13) of O=C1CCC(N2Cc3cc(CNC(=O)C4=Cc5cc(OC(F)(F)F)ccc5OC4)ccc3C2=O)C(=O)N1 (centres unmarked) [Compound A-10]
[A] 8.00 to 9.00

[Q] Please state recorded pIC50 (tested on MOLM-13) of O=C1CCC(N2Cc3cc(CNC(=O)C4CNc5ccccc5C4)ccc3C2=O)C(=O)N1 (centres unmarked) [Compound C-1]
[A] 7.00 to 8.00

[Q] Please state recorded pIC50 (tested on MOLM-13) of O=C1CCC(N2Cc3cc(CNC(=O)C(F)(F)c4ccc(Cl)cc4)ccc3C2=O)C(=O)N1 (centres unmarked) [CC-90009]
[A] 6.00 to 7.00

[Q] Please state recorded pIC50 (tested on MOLM-13) of O=C1CCC(N2Cc3cc(CNC(=O)C4=Cc5ccccc5OC4)ccc3C2=O)C(=O)N1 (centres unmarked) [Compound A-1]
[A] 7.00 to 8.00

[Q] Please state recorded pIC50 (tested on MOLM-13) of O=C1CCC(N2Cc3cc(CNC(=O)C4=Cc5cc(F)ccc5OC4)ccc3C2=O)C(=O)N1 (centres unmarked) [Compound A-3]
[A] 7.00 to 8.00

[Q] Please state recorded pIC50 (tested on MOLM-13) of O=C1CCC(N2Cc3cc(CNC(=O)C4COc5ccc(OC(F)(F)F)cc5C4)ccc3C2=O)C(=O)N1 (centres unmarked) [Compound B-4]
[A] 8.00 to 9.00

----------
Quick reference for AUC(0-inf) among some molecules
Procedure summary: In vivo pharmacokinetic study in rats
Condition description: male, SD, rat, plasma, iv, 2 mg/kg
Give the quantity in ng·h/mL, number only.

Example entries and their recorded answers appear below.
O=C1CCC(N2Cc3cc(CNC(=O)C4=Cc5ccccc5OC4)ccc3C2=O)C(=O)N1 (stereo not drawn)	1920
O=C1CCC(N2Cc3c(ccc(CNC(=O)C4=Cc5cc(OC(F)(F)F)ccc5OC4)c3F)C2=O)C(=O)N1 (stereo not drawn)	17300

Let us move to another entry and its AUC(0-inf).
[Q] Requested field: AUC(0-inf). Item: O=C1CCC(N2Cc3cc(CNC(=O)C4=Cc5cc(OC(F)(F)F)ccc5OC4)ccc3C2=O)C(=O)N1 (stereo not drawn)
[A] 4350

----------
Procedure summary: Metabolic stability in in vitro rat liver microsomes
Condition description: rat
Label key: 1 means microsomal CLint under 7 µL/min/mg; 0 means microsomal CLint of 7 µL/min/mg or more.

Before answering, review these 4 worked examples.
O=C1CCC(N2Cc3cc(CNC(=O)C4=Cc5ccccc5OC4)ccc3C2=O)C(=O)N1 (centres unmarked) [Compound A-1]	1
O=C1CCC(N2Cc3cc(CNC(=O)C4=Cc5cc(OC(F)(F)F)ccc5OC4)ccc3C2=O)C(=O)N1 (centres unmarked) [Compound A-10]	0
O=C1CCC(N2Cc3cc(CNC(=O)C4COc5ccccc5C4)ccc3C2=O)C(=O)N1 (centres unmarked) [Compound B-1]	0
O=C1CCC(N2Cc3cc(CNC(=O)C4=Cc5cc(F)ccc5OC4)ccc3C2=O)C(=O)N1 (centres unmarked) [Compound A-3]	1

Alright, here's another compound for you.
[Q] Lab note: confirm whether the reported microsomal CLint for this compound is below 7 µL/min/mg, equality not counting. compound: O=C1CCC(N2Cc3c(ccc(CNC(=O)C4=Cc5cc(OC(F)(F)F)ccc5OC4)c3F)C2=O)C(=O)N1 (centres unmarked) [Compound A-42]
[A] 0

----------
Procedure summary: In vivo pharmacokinetic study in rats
Condition description: male, SD, rat, plasma, iv, 2 mg/kg
Parameter: C0 (ng/mL)
Give the quantity in ng/mL, number only.

Example entries and their recorded answers appear below.
O=C1CCC(N2Cc3cc(CNC(=O)C4=Cc5cc(OC(F)(F)F)ccc5OC4)ccc3C2=O)C(=O)N1 (stereo not drawn)	16700
O=C1CCC(N2Cc3cc(CNC(=O)C4=Cc5ccccc5OC4)ccc3C2=O)C(=O)N1 (stereo not drawn)	3840

[Q] Requested field: C0. Item: O=C1CCC(N2Cc3c(ccc(CNC(=O)C4=Cc5cc(OC(F)(F)F)ccc5OC4)c3F)C2=O)C(=O)N1 (stereo not drawn)
[A] 32100
